All values here come from patent US9370183B2.

Target: A. thaliana S653N-mutant ALS (Arabidopsis thaliana, UniProt P17597, E575Q/S653N)
Construct: vector-encoded fusion of pET-32a(+) (Trx/His/S-tag by own knowledge of the vector); made in house; host or cells: Escherichia coli AD494
Sequence (P17597 56-670 E575Q/S653N): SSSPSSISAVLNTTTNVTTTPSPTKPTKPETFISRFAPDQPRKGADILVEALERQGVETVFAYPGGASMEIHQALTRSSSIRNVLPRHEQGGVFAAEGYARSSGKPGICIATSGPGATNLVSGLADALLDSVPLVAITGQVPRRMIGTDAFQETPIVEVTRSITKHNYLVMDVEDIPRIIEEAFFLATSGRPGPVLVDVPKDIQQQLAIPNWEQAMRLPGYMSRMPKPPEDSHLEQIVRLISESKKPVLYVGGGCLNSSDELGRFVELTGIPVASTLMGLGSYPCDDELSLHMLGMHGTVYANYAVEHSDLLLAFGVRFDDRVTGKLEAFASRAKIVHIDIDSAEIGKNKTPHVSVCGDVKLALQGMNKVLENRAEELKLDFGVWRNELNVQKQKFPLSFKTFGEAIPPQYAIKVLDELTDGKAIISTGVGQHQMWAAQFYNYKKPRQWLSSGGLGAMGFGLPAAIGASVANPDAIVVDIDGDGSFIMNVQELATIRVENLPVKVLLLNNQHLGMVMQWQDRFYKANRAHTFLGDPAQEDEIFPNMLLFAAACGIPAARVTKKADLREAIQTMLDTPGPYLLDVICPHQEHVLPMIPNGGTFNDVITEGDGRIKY
Assay: biochemical
Conditions: negative logarithm of the molar concentration inhibiting the enzyme activity by 50%; crude extract of E. coli expressing A. thaliana S653N ALS; 75 min, 30° C.; read-out: ALS PI50 S653N (converted)
VALUE_KIND: IC50

Quick one: IC50 for COc1cc(OC)nc(Oc2cccc(Oc3nc(OC)cc(OC)n3)c2C(=O)O)n1 [Bispyribac-sodium, bispyribac-sodium] ?
158 nM

Quick one: IC50 for CCS(=O)(=O)c1cccnc1S(=O)(=O)NC(=O)Nc1nc(OC)cc(OC)n1 [Rimsulfuron, rimsulfuron] ?
2.51 nM

Quick one: IC50 for COc1cc(OC)n2nc(S(=O)(=O)Nc3c(Cl)ccc(C)c3Cl)nc2n1 [Metosulam, metosulam] ?
39.8 nM

Quick one: IC50 for COC(=O)c1sccc1S(=O)(=O)NC(=O)Nc1nc(C)nc(OC)n1 [Thifensulfuron-Methyl, thifensulfuron-methyl] ?
158 nM

---

Target: A. thaliana wild-type ALS (Arabidopsis thaliana, UniProt P17597, E575Q)
Construct: vector-encoded fusion of pET-32a(+) (Trx/His/S-tag by own knowledge of the vector); made in house; host or cells: Escherichia coli AD494
Sequence (P17597 56-670 E575Q): as the sequence (P17597 56-670 E575Q/S653N) above, with N598S counted along it
Assay: biochemical
Conditions: negative logarithm of the molar concentration inhibiting the enzyme activity by 50%; crude extract of E. coli expressing A. thaliana wild-type ALS; 75 min, 30° C.; read-out: ALS PI50 WT (converted)
VALUE_KIND: log10 of IC50 (log10 of the value in nM)
Note: values are log10 of IC50 expressed in nM.

Quick one: log10 of IC50 for COC(=O)c1sccc1S(=O)(=O)NC(=O)Nc1nc(C)nc(OC)n1 ?
1.50

Quick one: log10 of IC50 for CCS(=O)(=O)c1nc2ccccn2c1S(=O)(=O)NC(=O)Nc1nc(OC)cc(OC)n1 ?
1.20

Quick one: log10 of IC50 for COc1cc(OC)n2nc(S(=O)(=O)Nc3c(Cl)ccc(C)c3Cl)nc2n1 ?
0.50

Quick one: log10 of IC50 for COc1cc(OC)nc(NC(=O)NS(=O)(=O)c2ncccc2C(F)(F)F)n1 ?
0.40

Quick one: log10 of IC50 for CCS(=O)(=O)c1cccnc1S(=O)(=O)NC(=O)Nc1nc(OC)cc(OC)n1 ?
1.00

Quick one: log10 of IC50 for COc1cc(OC)nc(Oc2cccc(Oc3nc(OC)cc(OC)n3)c2C(=O)O)n1 [Bispyribac-sodium, bispyribac-sodium] ?
1.20

Quick one: log10 of IC50 for COc1cc(OC)nc(NC(=O)NS(=O)(=O)c2ncccc2C(=O)N(C)C)n1 ?
1.80

---

Would you mind telling me the reported IC50 of each entry?
Biological target: A. thaliana S653N-mutant ALS (Arabidopsis thaliana, UniProt P17597, E575Q/S653N)
Construct: vector-encoded fusion of pET-32a(+) (Trx/His/S-tag by own knowledge of the vector); made in house; host or cells: Escherichia coli AD494
Experiment: biochemical
Settings: negative logarithm of the molar concentration inhibiting the enzyme activity by 50%; crude extract of E. coli expressing A. thaliana S653N ALS; 75 min, 30° C.; read-out: ALS PI50 S653N (converted)
Kindly provide the numeric value in nM only, without the unit symbol.

What value of IC50 on A. thaliana S653N-mutant ALS (Arabidopsis thaliana, UniProt P17597, E575Q/S653N) does COc1cc(OC)nc(NC(=O)NS(=O)(=O)N(C)S(C)(=O)=O)n1 have?
1.26

What value of IC50 on A. thaliana S653N-mutant ALS (Arabidopsis thaliana, UniProt P17597, E575Q/S653N) does COc1cc(OC)nc(NC(=O)NS(=O)(=O)c2ncccc2C(=O)N(C)C)n1 have?
1580

What value of IC50 on A. thaliana S653N-mutant ALS (Arabidopsis thaliana, UniProt P17597, E575Q/S653N) does CCS(=O)(=O)c1nc2ccccn2c1S(=O)(=O)NC(=O)Nc1nc(OC)cc(OC)n1 have?
79.4
